Values were extracted from the supplement of paper PMC10567573.

B1: FAM189A2 (parent)
chain: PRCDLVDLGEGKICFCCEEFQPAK

- Variants of: B1
- experimentNotes: protein stability index of a GFP-peptide fusion (GPS, HEK-293T) (PSI 1-6); higher = more stable;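 note: lentivirally expressed fusions sorted by FACS into six bins by GFP to DsRed ratio, PSI derived from sequencing read proportions per bin multiplied by bin number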
- settings: c terminus: a fixed tail appended
measurementKind: protein stability index

- seq: "PRMDLVDLGEGKICFCCEEFQPAK [C3M]"
  measurementKind: "protein stability index"
  endpointValue: 2.3
- seq: "PRCDLVDLGEGKICFCCLEFQPAK [E18L]"
  measurementKind: "protein stability index"
  endpointValue: 1.71
- seq: "PRCDLVDLGEGKICFCCEGFQPAK [E19G]"
  measurementKind: "protein stability index"
  endpointValue: 2.71
- seq: "PRCDHVDLGEGKICFCCEEFQPAK [L5H]"
  measurementKind: "protein stability index"
  endpointValue: 4.84
- seq: "PRCDLVDLAEGKICFCCEEFQPAK [G9A]"
  measurementKind: "protein stability index"
  endpointValue: 2.9
- seq: "PRCDLVDLGEGKTCFCCEEFQPAK [I13T]"
  measurementKind: "protein stability index"
  endpointValue: 3.1
- seq: "PRCDLVDLGEGKICKCCEEFQPAK [F15K]"
  measurementKind: "protein stability index"
  endpointValue: 4.07
- seq: "PRCDLVDLGEGKICFCCELFQPAK [E19L]"
  measurementKind: "protein stability index"
  endpointValue: 2
- seq: "PRCDLVDLGEAKICFCCEEFQPAK [G11A]"
  measurementKind: "protein stability index"
  endpointValue: 2.63
- seq: "PRCDLVDLGEGKICFCCEAFQPAK [E19A]"
  measurementKind: "protein stability index"
  endpointValue: 2.51
- seq: "PRCDLVDLGEGQICFCCEEFQPAK [K12Q]"
  measurementKind: "protein stability index"
  endpointValue: 3.89
- seq: "PRCDLVDLGEGKICFCCEYFQPAK [E19Y]"
  measurementKind: "protein stability index"
  endpointValue: 2.03
- seq: "PRCDLVDLMEGKICFCCEEFQPAK [G9M]"
  measurementKind: "protein stability index"
  endpointValue: 2.04
- seq: "PRCDLVDLGEGKICFCCEKFQPAK [E19K]"
  measurementKind: "protein stability index"
  endpointValue: 2.09
- seq: "PRCVLVDLGEGKICFCCEEFQPAK [D4V]"
  measurementKind: "protein stability index"
  endpointValue: 2.5
- seq: "PRCDLVDLGEQKICFCCEEFQPAK [G11Q]"
  measurementKind: "protein stability index"
  endpointValue: 2.98
- seq: "PRCDLVDLGEGKICFCCEEFQPGK [A23G]"
  measurementKind: "protein stability index"
  endpointValue: 2.72
- seq: "PRCDLVDLGEGKICFCCEQFQPAK [E19Q]"
  measurementKind: "protein stability index"
  endpointValue: 3.05
- seq: "PRCDLVDLGEIKICFCCEEFQPAK [G11I]"
  measurementKind: "protein stability index"
  endpointValue: 1.86
- seq: "PRCDLDDLGEGKICFCCEEFQPAK [V6D]"
  measurementKind: "protein stability index"
  endpointValue: 3.34
- seq: "PRCDLVPLGEGKICFCCEEFQPAK [D7P]"
  measurementKind: "protein stability index"
  endpointValue: 3.17
- seq: "PRCDLVDLGEGKICFCCPEFQPAK [E18P]"
  measurementKind: "protein stability index"
  endpointValue: 2.98
- seq: "PRCDLVDLGEGKICFCCEEVQPAK [F20V]"
  measurementKind: "protein stability index"
  endpointValue: 3.75
- seq: "PRCDLVDLGEGKICFCCEEFQAAK [P22A]"
  measurementKind: "protein stability index"
  endpointValue: 3.31
- seq: "GRCDLVDLGEGKICFCCEEFQPAK [P1G]"
  measurementKind: "protein stability index"
  endpointValue: 3.14
- seq: "PRCDLVDLGEGKICFCCEEFQNAK [P22N]"
  measurementKind: "protein stability index"
  endpointValue: 3.28
- seq: "PRCDLVDLGEGKICFKCEEFQPAK [C16K]"
  measurementKind: "protein stability index"
  endpointValue: 3.76
- seq: "PRCDLVDLGEGKQCFCCEEFQPAK [I13Q]"
  measurementKind: "protein stability index"
  endpointValue: 3.27
- seq: "PRCDLVDLGEGKICFCCEEFQYAK [P22Y]"
  measurementKind: "protein stability index"
  endpointValue: 3.06
- seq: "PRCDLVDLGEGKICFCCEETQPAK [F20T]"
  measurementKind: "protein stability index"
  endpointValue: 3.97
- seq: "PRCDLVDLGEVKICFCCEEFQPAK [G11V]"
  measurementKind: "protein stability index"
  endpointValue: 1.05
- seq: "PRCDLVKLGEGKICFCCEEFQPAK [D7K]"
  measurementKind: "protein stability index"
  endpointValue: 3.76
- seq: "PRCDLVDLGEGKICFHCEEFQPAK [C16H]"
  measurementKind: "protein stability index"
  endpointValue: 4.23
- seq: "PRCDLVDLGEGKIGFCCEEFQPAK [C14G]"
  measurementKind: "protein stability index"
  endpointValue: 3.56
- seq: "PRCDKVDLGEGKICFCCEEFQPAK [L5K]"
  measurementKind: "protein stability index"
  endpointValue: 4.28
- seq: "PRCDLVDLGEGKICFCCEEFQPWK [A23W]"
  measurementKind: "protein stability index"
  endpointValue: 3.56
- seq: "PRCDLVDLGEGKICFCCEEFQPDK [A23D]"
  measurementKind: "protein stability index"
  endpointValue: 3.12
- seq: "PRCDLVDLGEGKICFCQEEFQPAK [C17Q]"
  measurementKind: "protein stability index"
  endpointValue: 3.12
- seq: "PRGDLVDLGEGKICFCCEEFQPAK [C3G]"
  measurementKind: "protein stability index"
  endpointValue: 2.98
- seq: "PRCDLVDLGEGPICFCCEEFQPAK [K12P]"
  measurementKind: "protein stability index"
  endpointValue: 3.25
- seq: "PRCDLVDLDEGKICFCCEEFQPAK [G9D]"
  measurementKind: "protein stability index"
  endpointValue: 3.18
- seq: "PRCDLVDLGEGKICFCCEEFQPAP [K24P]"
  measurementKind: "protein stability index"
  endpointValue: 3.05
- seq: "PRCDLVDLGEGKICDCCEEFQPAK [F15D]"
  measurementKind: "protein stability index"
  endpointValue: 4.74
- seq: "MRCDLVDLGEGKICFCCEEFQPAK [P1M]"
  measurementKind: "protein stability index"
  endpointValue: 1.86
- seq: "PRCDLVDLGEDKICFCCEEFQPAK [G11D]"
  measurementKind: "protein stability index"
  endpointValue: 3.28
- seq: "PRCDLVDLGEGKICFCCEEFQGAK [P22G]"
  measurementKind: "protein stability index"
  endpointValue: 3.86
- seq: "PRCDLHDLGEGKICFCCEEFQPAK [V6H]"
  measurementKind: "protein stability index"
  endpointValue: 4.45
- seq: "PFCDLVDLGEGKICFCCEEFQPAK [R2F]"
  measurementKind: "protein stability index"
  endpointValue: 1.65
- seq: "PRCDLCDLGEGKICFCCEEFQPAK [V6C]"
  measurementKind: "protein stability index"
  endpointValue: 4.15
- seq: "PRCDLVDLLEGKICFCCEEFQPAK [G9L]"
  measurementKind: "protein stability index"
  endpointValue: 2.21
- seq: "PRCDLVDLGEGKICFCCEPFQPAK [E19P]"
  measurementKind: "protein stability index"
  endpointValue: 3.04
- seq: "PRWDLVDLGEGKICFCCEEFQPAK [C3W]"
  measurementKind: "protein stability index"
  endpointValue: 2.69
- seq: "PRCDLVDLGEGKICRCCEEFQPAK [F15R]"
  measurementKind: "protein stability index"
  endpointValue: 3.33
- seq: "PRCDLVDLGEGKICFCCWEFQPAK [E18W]"
  measurementKind: "protein stability index"
  endpointValue: 2.01
- seq: "PRCDLVDLGEGKICFCCEEFQPAI [K24I]"
  measurementKind: "protein stability index"
  endpointValue: 2.48
- seq: "PRCDLVDLGEKKICFCCEEFQPAK [G11K]"
  measurementKind: "protein stability index"
  endpointValue: 2.4
- seq: "PRCDLVDLGEGKICFCCENFQPAK [E19N]"
  measurementKind: "protein stability index"
  endpointValue: 3.21
- seq: "PRCDLVDLGEGKICFCCEEFAPAK [Q21A]"
  measurementKind: "protein stability index"
  endpointValue: 3.44
- seq: "PRQDLVDLGEGKICFCCEEFQPAK [C3Q]"
  measurementKind: "protein stability index"
  endpointValue: 3.26
- seq: "PRCDLVDLGEGKICFCCEEHQPAK [F20H]"
  measurementKind: "protein stability index"
  endpointValue: 4.34
- seq: "PRCDLVDLGEGKICFCCTEFQPAK [E18T]"
  measurementKind: "protein stability index"
  endpointValue: 2.45
- seq: "PRCDLVDLGEGKICFCLEEFQPAK [C17L]"
  measurementKind: "protein stability index"
  endpointValue: 2.15
- seq: "PRCDLVDLGEGKICFFCEEFQPAK [C16F]"
  measurementKind: "protein stability index"
  endpointValue: 2.66
- seq: "PSCDLVDLGEGKICFCCEEFQPAK [R2S]"
  measurementKind: "protein stability index"
  endpointValue: 3.06
- seq: "PRCDLVDLGEGKICTCCEEFQPAK [F15T]"
  measurementKind: "protein stability index"
  endpointValue: 4.07
- seq: "PRCDLVDLGEGKICFCCEEFWPAK [Q21W]"
  measurementKind: "protein stability index"
  endpointValue: 2.48
- seq: "PRCDIVDLGEGKICFCCEEFQPAK [L5I]"
  measurementKind: "protein stability index"
  endpointValue: 3.13
- seq: "PRCDLVDLGEGKICFCCEEFQCAK [P22C]"
  measurementKind: "protein stability index"
  endpointValue: 3.51
- seq: "PRCDLVDLGEGKIMFCCEEFQPAK [C14M]"
  measurementKind: "protein stability index"
  endpointValue: 2.87
- seq: "PRCDLVDLGEGKICQCCEEFQPAK [F15Q]"
  measurementKind: "protein stability index"
  endpointValue: 4.13
- seq: "PRCDLVDLGEGKICFCCEEFQQAK [P22Q]"
  measurementKind: "protein stability index"
  endpointValue: 3.51
- seq: "SRCDLVDLGEGKICFCCEEFQPAK [P1S]"
  measurementKind: "protein stability index"
  endpointValue: 3
- seq: "PRCDLVDLGEGKICFCCEEFQPSK [A23S]"
  measurementKind: "protein stability index"
  endpointValue: 2.66
- seq: "PRCDLVDLGEGKHCFCCEEFQPAK [I13H]"
  measurementKind: "protein stability index"
  endpointValue: 3.89
